- tested-on: human α1B adrenoceptor (Homo sapiens)
- Construct: expressed in transfected cells
- Sequence (P35368 whole entry): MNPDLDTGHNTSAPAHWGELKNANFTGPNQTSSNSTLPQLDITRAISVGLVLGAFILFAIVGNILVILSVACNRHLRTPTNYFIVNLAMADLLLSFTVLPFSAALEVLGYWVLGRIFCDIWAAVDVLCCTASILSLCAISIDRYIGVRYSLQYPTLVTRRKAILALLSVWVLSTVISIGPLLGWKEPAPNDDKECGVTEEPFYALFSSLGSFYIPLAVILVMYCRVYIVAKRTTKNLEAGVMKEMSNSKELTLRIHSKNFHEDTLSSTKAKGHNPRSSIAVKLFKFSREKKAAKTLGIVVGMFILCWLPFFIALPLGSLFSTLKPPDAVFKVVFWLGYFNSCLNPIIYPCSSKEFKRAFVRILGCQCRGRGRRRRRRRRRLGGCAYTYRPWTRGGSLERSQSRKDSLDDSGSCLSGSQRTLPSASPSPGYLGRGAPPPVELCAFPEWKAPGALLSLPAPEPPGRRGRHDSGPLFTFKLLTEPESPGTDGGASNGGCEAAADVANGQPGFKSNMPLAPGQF
- test-protocol: Binding affinity at the human α1B adrenergic receptor
- experimental-conditions: Table 3d; read-out: hα1B Ki
Counter-ions that a name gives are not always drawn.
For each record, write down the corresponding pKi.
Give bare numbers, as −log10 of the molar value.

- compound: "COC(=O)C1=C(C)NC(=O)N(C(=O)NCCCN2CCC3(CC2)OCc2ccccc23)C1c1ccc(F)c(F)c1 (stereo not shown)"
  tested-on: "human α1B adrenoceptor (Homo sapiens)"
  pKi: 6.39
- compound: "COC(=O)C1=C(C)NC(=O)N(C(=O)NCCCN2CCC3(CC2)OCc2ccccc23)C1c1ccc2nonc2c1 (single isomer, unassigned) [Example 18, HYDROCHLORIDE]"
  tested-on: "human α1B adrenoceptor (Homo sapiens)"
  pKi: 6.38
- compound: "COCC1=C(C(=O)OC)[C@H](c2ccc(F)c(F)c2)N(C(=O)NCCCN2CCC(c3cccc(NC(C)=O)c3)CC2)C(=O)N1"
  tested-on: "human α1B adrenoceptor (Homo sapiens)"
  pKi: 4.95

Fill blank: measured pKi of the compound COCC1=C(C(=O)OC)C(c2ccc(F)c(F)c2)N(C(=O)NCCCN2CCC(c3cccc(NC(C)=O)c3)CC2)C(=O)N1 (single isomer, unassigned; (-)) is ____.
5.04

Where these numbers come from: patent US20040038855A1
